- procedure-details: Acute toxicity on intravenous administration to mice
- assay-setup: mouse, in vivo
Threshold check on LD50: strictly below 200 mg/kg is criterion met; on or above 200 mg/kg is criterion not met.

1) CC1CCC2C(C)(C)C(O)C(O)CC2(C)C12Cc1c(O)cc(C=O)c(C=O)c1O2 (stereo not shown) [(1)] = criterion met
2) CC1CCC2C(C)(C)C(O)C(O)CC2(C)C12Cc1c(O)cc(C=C(C#N)C(=O)O)c(C=C(C#N)C(=O)O)c1O2 (stereo not shown) [(6)] = criterion not met
3) CC1CCC2C(C)(C)C(O)C(O)CC2(C)C12Cc1c(O)cc(C=CC(=O)O)c(C=CC(=O)O)c1O2 (stereo not shown) [(7)] = criterion met
4) CC1CCC2C(C)(C)C(O)C(O)CC2(C)C12Cc1c(O)cc(O)c(O)c1O2 (stereo not shown) [(2)] = criterion met
5) CC1CCC2C(C)(C)C(O)C(O)CC2(C)C12Cc1c(O)cc(C=O)c(C(=O)O)c1O2 (stereo not shown) [(67)] = criterion not met
